# experiment.summary: Toxicity, LD50 by intraperitoneal route
# condition.set: mouse, in vivo, ip, mice
Would you kindly list LD50 for each of these compounds?
Give bare numbers, in mg/kg.

[
  {
    "compound": "NC(=NI)c1ccccc1 [AB6]",
    "units.text": "mg/kg",
    "LD50": 85
  }
]

Then there is this compound:
Look at this compound and give its reported LD50. NC(=NCl)c1ccccc1 [AB5] 85
